Tested on: SK-MEL-2
MEASUREMENT_NOTES: NCI tumour cell line growth inhibition, 48 h
Activity calls are given as the source filed them. Cut-off read from the data, not from the text of the source: active = GI50 up to about 1.1 µM and inactive = higher.
MEASURED_QUANTITY: GI50

> print(dat)
                                smiles.repr  observed.measurement
1  Cc1nnc2n1N=C(c1cc(F)c(Cl)cc1Cl)/C(=C/c1ccc(-c3ccc([N+](=O)[O-])cc3)o1)S2    42.6 µM (inactive)
2  O=C(/C=C\c1ccc(/C=C/C(=O)Nc2cccc(C3=NCCCN3)c2)cc1)Nc1cccc(C2=NCCCN2)c1  > 62.8 µM (inactive)
3              COC(=O)CCC(=O)Nc1ccc(Cl)cc1C  > 47.8 µM (inactive)
4  CN(C)CC(C)(C)C(/C=C/c1ccccc1)=N\Nc1ccccc1     3.6 µM (inactive)

From here, focus on the item given below.
Lab note: measured GI50 of CN(C)CCNC(=O)c1cccc2nc3ccc4ccccc4c3nc12 was 0.177 µM (active)

----------
Listing of recorded GI50 by entry.
Test system: UO-31
MEASUREMENT_NOTES: NCI tumour cell line growth inhibition, 48 h
Active and inactive are the calls of the source. Rule as the data show it: active = GI50 up to about 1.1 µM and inactive = higher. Positions of bridges follow the written chain, without caps; N, C: chain ends. Where a SMILES comes first, the peptide text is derived from it. Non-standard residues stand in square brackets, D forms with d. Residues, ends and D or L forms follow the SMILES beside them. The star is where a group is joined. Boc = CC(C)(C)OC(=O)*; Aib = CC(C)(N)C(=O)O; βAla = NCCC(=O)O

Sample answers from the record:
COMPOUND	SYSTEM_UNDER_TEST	OBSERVED_MEASUREMENT
CC(C)(C)C1CCC2c3c([nH]c4ccccc34)C3C(=O)N(c4ccccc4[N+](=O)[O-])C(=O)C3C2C1 (configuration not stated)	UO-31	20.4 µM (inactive)
Cc1ccc(S(=O)(=O)OC2CSSCC2OS(=O)(=O)c2ccc(C)cc2)cc1 (configuration not stated)	UO-31	15.2 µM (inactive)
O=C(/C=C/c1ccc([N+](=O)[O-])cc1)N1CCN(CCOC(c2ccc(F)cc2)c2ccc(F)cc2)CC1	UO-31	14.3 µM (inactive)

Lab note: measured GI50 of COC(=O)C(Cc1c[nH]c2ccccc12)NC(=O)C(Cc1c[nH]c2ccccc12)NC(=O)C(Cc1c[nH]c2ccccc12)NC(=O)C(Cc1c[nH]c2ccccc12)NC(=O)C(Cc1c[nH]c2ccccc12)NC(=O)C(Cc1c[nH]c2ccccc12)NC(=O)C(Cc1c[nH]c2ccccc12)NC(=O)OC(C)(C)C (configuration not stated) (Boc-WWWWWWW-OMe; configuration not given here) was 44.9 µM (inactive)

Lab note: measured GI50 of O=C(/C=N/O)Nc1ccc(Cl)c(I)c1 was 12.1 µM (inactive)

Lab note: measured GI50 of O=C(O)c1cccc(OCCOc2cccc(C(=O)O)c2[N+](=O)[O-])c1[N+](=O)[O-] was > 100 µM (inactive)

Lab note: measured GI50 of O=C(O)c1oc2ccc([N+](=O)[O-])c3c2c1CCC3 was > 100 µM (inactive)

Lab note: measured GI50 of CCCCCCCC(=O)OC[C@H](C[As](=O)(O)O)OC(=O)CCCCCCC was 2.27 µM (inactive)

Lab note: measured GI50 of CC1(C)NC(=O)C(NC(=O)C(N)CC(=O)O)CCCCNC(=O)CCNC1=O (configuration not stated) (H-DK[Aib][βAla]; lactam 2-C; configuration not given here) was > 100 µM (inactive)

Lab note: measured GI50 of Cc1ccc(S(=O)(=O)N2CCSCCSCCSCCN(S(=O)(=O)c3ccc(C)cc3)CC2)cc1 was > 100 µM (inactive)

Lab note: measured GI50 of COc1ccc(CSc2ccccc2Cn2cccc2)cc1OC was 39.4 µM (inactive)

Lab note: measured GI50 of COc1cc(C2c3cc4c(cc3OC(C)(N3CCCC3)C2C)OCO4)cc(OC)c1OC (configuration not stated) was 1.26 µM (inactive)

Lab note: measured GI50 of O=C(NCCCNCCNC(=O)c1cc(-c2ccccc2)nc2ccccc12)c1cc(-c2ccccc2)nc2ccccc12 was 1.86 µM (inactive)

Lab note: measured GI50 of C[N+]1(C)C/C(=C\c2ccccc2)C(=O)/C(=C/c2ccccc2)C1 was > 100 µM (inactive)

Lab note: measured GI50 of CN(C)c1ccc(-c2nc(-c3cc4c(ccc5ccccc54)oc3=O)cs2)cc1 was > 100 µM (inactive)

Lab note: measured GI50 of Cc1ccc(C(=O)c2[nH]c(NCc3ccccc3)c(C(=S)Nc3ccccc3)c2N)cc1 was 5.32 µM (inactive)

Lab note: measured GI50 of CC(C)(C)c1c2c(c(C(C)(C)C)c3c1OCN(Cc1ccccc1)C3)OCN(Cc1ccccc1)C2 was 17.2 µM (inactive)
